Cited source: patent US12227488B2

targetUnderTest: GSPT1 (Homo sapiens, UniProt P15170+Q96SW2)
Sequence (P15170 whole entry, one chain of several, the tested form may be a part): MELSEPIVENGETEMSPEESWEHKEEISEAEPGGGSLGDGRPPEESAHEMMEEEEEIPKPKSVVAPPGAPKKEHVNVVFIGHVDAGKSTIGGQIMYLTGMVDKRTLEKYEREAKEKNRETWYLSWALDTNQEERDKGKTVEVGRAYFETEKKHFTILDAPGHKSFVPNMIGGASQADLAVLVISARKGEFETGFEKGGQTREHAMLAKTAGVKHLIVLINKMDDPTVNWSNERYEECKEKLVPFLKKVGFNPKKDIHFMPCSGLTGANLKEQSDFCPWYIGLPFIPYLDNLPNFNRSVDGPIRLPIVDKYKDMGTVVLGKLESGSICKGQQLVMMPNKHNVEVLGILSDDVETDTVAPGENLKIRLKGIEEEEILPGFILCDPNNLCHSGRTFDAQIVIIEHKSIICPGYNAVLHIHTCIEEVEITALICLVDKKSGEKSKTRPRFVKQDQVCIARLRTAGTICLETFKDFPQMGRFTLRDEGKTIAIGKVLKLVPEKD
Sequence (Q16531 whole entry partner, one chain of several, the tested form may be a part): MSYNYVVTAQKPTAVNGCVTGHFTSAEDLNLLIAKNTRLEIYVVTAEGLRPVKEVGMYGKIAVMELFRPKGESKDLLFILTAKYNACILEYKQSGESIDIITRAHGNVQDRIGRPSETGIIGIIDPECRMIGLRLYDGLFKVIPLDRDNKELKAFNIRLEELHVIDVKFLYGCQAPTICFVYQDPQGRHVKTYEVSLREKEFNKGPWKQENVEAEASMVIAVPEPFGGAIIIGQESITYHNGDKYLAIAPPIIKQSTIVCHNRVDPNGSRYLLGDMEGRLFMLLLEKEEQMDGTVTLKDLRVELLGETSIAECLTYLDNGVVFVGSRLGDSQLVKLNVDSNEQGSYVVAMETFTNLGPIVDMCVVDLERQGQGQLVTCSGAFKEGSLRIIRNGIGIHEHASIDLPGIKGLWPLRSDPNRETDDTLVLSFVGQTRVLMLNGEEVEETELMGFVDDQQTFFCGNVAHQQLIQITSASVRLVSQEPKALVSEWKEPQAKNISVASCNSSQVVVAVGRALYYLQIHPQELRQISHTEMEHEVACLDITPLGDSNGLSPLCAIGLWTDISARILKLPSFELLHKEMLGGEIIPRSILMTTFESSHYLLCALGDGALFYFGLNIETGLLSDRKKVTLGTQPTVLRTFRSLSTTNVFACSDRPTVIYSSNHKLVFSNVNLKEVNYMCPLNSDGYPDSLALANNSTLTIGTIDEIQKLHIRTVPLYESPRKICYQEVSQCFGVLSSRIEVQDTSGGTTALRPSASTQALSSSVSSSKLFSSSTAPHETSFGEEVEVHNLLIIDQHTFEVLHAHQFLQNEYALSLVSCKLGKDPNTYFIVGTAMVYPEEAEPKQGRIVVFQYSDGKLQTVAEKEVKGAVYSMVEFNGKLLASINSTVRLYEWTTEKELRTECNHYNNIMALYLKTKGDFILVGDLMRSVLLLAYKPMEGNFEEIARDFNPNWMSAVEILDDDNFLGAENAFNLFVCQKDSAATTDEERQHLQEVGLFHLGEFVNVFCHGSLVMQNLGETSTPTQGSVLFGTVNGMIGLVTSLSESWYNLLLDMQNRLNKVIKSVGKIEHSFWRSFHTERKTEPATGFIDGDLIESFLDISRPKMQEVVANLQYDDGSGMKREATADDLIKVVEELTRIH
assayName: Cellular degradation assay, eGFP-GSPT1 fusion with mCherry reporter in Flp-In 293 cells
Type: cell-based
Set-up: expressed in transfected cells; host or cells: Flp-In 293
conditionSet: half degradation at 5 h (DC50,5 h); triplicate, 11 point dose response
parameter: DC50

See these solved cases before continuing.
Request: Looking for the measured DC50 of CC(NC(=O)Cc1cccc(C(F)(F)F)c1)c1cccc(NC2=CC(=O)N(C3CCC(=O)NC3=O)C2=O)c1 (stereo not drawn) , can you help?
Response: > 1000 nM

Request: Record request: DC50 value, item Cc1ccc(NC(=O)NCCc2cccc(NC3=CC(=O)N(C4CCC(=O)NC4=O)C3=O)c2)cc1Cl (stereo not drawn)
Response: > 1000 nM

Request: Which value of DC50 has been reported for Cc1ccc(NC(=O)NCc2ccc3c(c2)CN(C2CCC(=O)NC2=O)C3=O)cc1Cl (stereo not drawn) [CC-885, reference compound] in the records?
Response: 0.084 nM

Request: State the recorded DC50 for this entry: CC(C)(NC(=O)Cc1cccc(C(F)(F)F)c1)c1cccc(NC2=CC(=O)N(C3CCC(=O)NC3=O)C2=O)c1 (stereo not drawn)
Response: > 1000 nM

Request: Report DC50 for Cc1ccc(NC(=O)N[C@@H](C)c2cccc(NC3=CC(=O)N(C4CCC(=O)NC4=O)C3=O)c2)cc1Cl (stereo partly drawn) please.
Response: > 1000 nM

---
Request: Given the entry Cc1ccc(NC(=O)NC(C)(C)c2cccc(NC3=CC(=O)N(C4CCC(=O)NC4=O)C3=O)c2)cc1Cl (stereo not drawn) , report its measured DC50.
Response: > 1000 nM

* * *

targetUnderTest: GSPT1 (Homo sapiens, UniProt P15170+Q96SW2)
assayName: Cellular degradation assay, eGFP-GSPT1 fusion with mCherry reporter in Flp-In 293 cells
Type: cell-based
Parameters: expressed in transfected cells; host or cells: Flp-In 293
conditionSet: compound concentration 2.00E−05; 5 h incubation; n=1
parameter: GSPT1 GFP/RFP Relative Abundance
API doc: respond with a numeric literal and nothing else, no unit.

Request: Recorded GSPT1 GFP/RFP Relative Abundance for Cc1ccc(NC2=CC(=O)N(C3CCC(=O)NC3=O)C2=O)cc1C#N (centres unmarked) , please?
Response: 0.714

Request: So what does the record say about GSPT1 GFP/RFP Relative Abundance for O=C1CCC(N2C(=O)C=C(Nc3cccc(NC(=O)Nc4ccc(Cl)c(Cl)c4)c3)C2=O)C(=O)N1 (centres unmarked) ?
Response: 1.572

Request: Looking for the measured GSPT1 GFP/RFP Relative Abundance of Cc1ccc(NC(=O)Oc2cccc(NC3=CC(=O)N(C4CCC(=O)NC4=O)C3=O)c2)cc1Cl (centres unmarked) , can you help?
Response: 1.680

Request: Entry under review: CN(C1=CC(=O)N(C2CCC(=O)NC2=O)C1=O)c1ccccc1 (centres unmarked) . Reported GSPT1 GFP/RFP Relative Abundance?
Response: 1.001

We now examine a further compound.
Request: Which GSPT1 GFP/RFP Relative Abundance value belongs to O=C(O)CCCCNC1=CC(=O)N(C2CCC(=O)NC2=O)C1=O (centres unmarked) ?
Response: 1.058

* * *

targetUnderTest: IKZF1 (Homo sapiens)
Construct: expressed in transfected cells; host or cells: Flp-In 293
Sequence (Q13422 83-213 isoform Q13422-7 limits assumed, one chain of several): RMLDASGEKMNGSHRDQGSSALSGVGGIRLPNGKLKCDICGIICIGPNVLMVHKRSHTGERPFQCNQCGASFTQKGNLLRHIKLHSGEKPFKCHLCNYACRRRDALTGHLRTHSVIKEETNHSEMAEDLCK
Sequence (Q16531 2-1140 partner limits assumed, one chain of several): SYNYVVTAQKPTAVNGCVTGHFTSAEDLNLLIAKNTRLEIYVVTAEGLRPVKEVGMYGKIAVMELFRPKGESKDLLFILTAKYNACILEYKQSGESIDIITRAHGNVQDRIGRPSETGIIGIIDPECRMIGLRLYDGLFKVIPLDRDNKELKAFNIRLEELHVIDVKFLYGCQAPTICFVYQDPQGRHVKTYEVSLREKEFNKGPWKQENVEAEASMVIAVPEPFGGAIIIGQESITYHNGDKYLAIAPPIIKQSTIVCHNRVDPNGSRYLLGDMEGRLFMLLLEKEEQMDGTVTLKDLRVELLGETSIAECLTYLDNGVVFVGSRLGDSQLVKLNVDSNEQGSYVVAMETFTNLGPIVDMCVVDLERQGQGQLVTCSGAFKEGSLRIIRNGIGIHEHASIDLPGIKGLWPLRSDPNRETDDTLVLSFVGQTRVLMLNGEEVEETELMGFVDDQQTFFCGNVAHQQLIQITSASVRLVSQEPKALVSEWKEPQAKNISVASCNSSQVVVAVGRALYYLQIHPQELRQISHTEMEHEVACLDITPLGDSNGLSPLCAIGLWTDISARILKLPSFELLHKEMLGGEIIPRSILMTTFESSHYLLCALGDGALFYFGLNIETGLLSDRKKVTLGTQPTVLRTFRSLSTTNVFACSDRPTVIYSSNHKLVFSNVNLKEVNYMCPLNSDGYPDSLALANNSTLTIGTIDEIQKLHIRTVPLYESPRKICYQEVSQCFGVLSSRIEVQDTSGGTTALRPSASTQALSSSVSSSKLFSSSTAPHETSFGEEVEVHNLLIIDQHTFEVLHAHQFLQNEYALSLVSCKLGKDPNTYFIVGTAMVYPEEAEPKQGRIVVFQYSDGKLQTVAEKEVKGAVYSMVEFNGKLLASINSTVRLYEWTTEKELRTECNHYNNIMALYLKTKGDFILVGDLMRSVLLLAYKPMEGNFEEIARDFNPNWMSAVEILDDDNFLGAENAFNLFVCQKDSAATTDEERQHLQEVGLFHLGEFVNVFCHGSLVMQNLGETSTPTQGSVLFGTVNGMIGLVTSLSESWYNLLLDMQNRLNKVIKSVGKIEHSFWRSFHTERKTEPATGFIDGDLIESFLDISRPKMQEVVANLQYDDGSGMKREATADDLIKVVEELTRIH
assayName: Cellular degradation assay, eGFP-IKZF1Δ fusion with mCherry reporter in Flp-In 293 cells
Assay type: cell-based
conditionSet: compound concentration 2.00E−06; 5 h incubation; n=1
Classify as follows. Reported IKZF1 GFP/RFP Relative Abundance greater than or equal to 0.8: label 1. Reported IKZF1 GFP/RFP Relative Abundance below: label 0.

Request: Threshold query (IKZF1 GFP/RFP Relative Abundance >= 0.8) on Cc1ccc(NC(=O)N[C@@H](C)c2cccc(NC3=CC(=O)N(C4CCC(=O)NC4=O)C3=O)c2)cc1Cl (some centres unmarked)
Response: label 0

Consider the additional molecule presented here.
Request: # check: IKZF1 GFP/RFP Relative Abundance of O=C1CCC(N2C(=O)C=C(Nc3cnc4ccccc4c3)C2=O)C(=O)N1 (centres unmarked) is greater than or equal to 0.8
Response: label 0

* * *

targetUnderTest: CRBN and Helios (IKZF2) (Homo sapiens, UniProt Q96SW2+Q9UKS7)
Construct: His (N); Strep (N)
Sequence (Q96SW2 whole entry): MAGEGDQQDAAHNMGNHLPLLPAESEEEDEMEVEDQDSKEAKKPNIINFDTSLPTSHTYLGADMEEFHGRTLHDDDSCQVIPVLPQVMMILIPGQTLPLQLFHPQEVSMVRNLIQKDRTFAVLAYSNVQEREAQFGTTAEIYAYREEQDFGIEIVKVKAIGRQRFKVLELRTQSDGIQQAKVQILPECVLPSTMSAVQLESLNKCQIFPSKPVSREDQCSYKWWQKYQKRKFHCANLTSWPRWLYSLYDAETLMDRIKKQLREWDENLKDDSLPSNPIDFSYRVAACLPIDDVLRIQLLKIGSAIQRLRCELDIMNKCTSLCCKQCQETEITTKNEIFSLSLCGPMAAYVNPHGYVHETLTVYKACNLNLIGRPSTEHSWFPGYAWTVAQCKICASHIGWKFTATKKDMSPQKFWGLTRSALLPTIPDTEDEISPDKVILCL
Sequence (Q9UKS7 whole entry): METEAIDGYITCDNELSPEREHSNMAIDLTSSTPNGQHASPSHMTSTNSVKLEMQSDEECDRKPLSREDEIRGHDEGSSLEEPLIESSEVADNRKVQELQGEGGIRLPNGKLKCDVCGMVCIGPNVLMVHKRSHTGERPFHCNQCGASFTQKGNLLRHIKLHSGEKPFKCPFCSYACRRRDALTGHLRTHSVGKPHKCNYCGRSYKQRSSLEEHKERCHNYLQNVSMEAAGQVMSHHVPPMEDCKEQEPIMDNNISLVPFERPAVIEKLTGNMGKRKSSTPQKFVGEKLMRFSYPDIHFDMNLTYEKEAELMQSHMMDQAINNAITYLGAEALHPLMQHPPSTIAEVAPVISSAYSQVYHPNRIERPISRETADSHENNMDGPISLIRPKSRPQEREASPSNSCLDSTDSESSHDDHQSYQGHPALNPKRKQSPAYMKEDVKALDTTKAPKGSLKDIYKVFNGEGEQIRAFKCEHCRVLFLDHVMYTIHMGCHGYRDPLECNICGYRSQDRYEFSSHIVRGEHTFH
assayName: TR-FRET dimerization assay (CRBN-IKZF2 ternary complex formation)
Assay type: binding
conditionSet: compound concentration 6.6667E−05; n=1
parameter: TR-FRET-IKZF2 (Normalized to CC-885)
Give only the figure.

Some entries whose results are on file:
Request: Return reported TR-FRET-IKZF2 (Normalized to CC-885); argument: Cc1ccc(NC(=O)NC(CC(=O)N(C)C)c2cccc(NC3=CC(=O)N(C4CCC(=O)NC4=O)C3=O)c2)cc1Cl (stereo not shown)
Response: 1.961

Request: Which value of TR-FRET-IKZF2 (Normalized to CC-885) has been reported for O=C1CCC(N2C(=O)C=C(Nc3cccc(-c4nnn[nH]4)c3)C2=O)C(=O)N1 (stereo not shown) in the records?
Response: 0.326

Request: Fill in the blank: the reported TR-FRET-IKZF2 (Normalized to CC-885) of Cc1ccc(NC(=O)NCCCNC2=CC(=O)N(C3CCC(=O)NC3=O)C2=O)cc1Cl (stereo not shown) is ____.
Response: 0.288

# input for lookup
Request: // query TR-FRET-IKZF2 (Normalized to CC-885) value for entry CCOC(=O)CN(C)C1=CC(=O)N(C2CCC(=O)NC2=O)C1=O (stereo not shown)
Response: 0.043

* * *

targetUnderTest: CRBN and Helios (IKZF2) (Homo sapiens, UniProt Q96SW2+Q9UKS7)
Construct: His (N); Strep (N)
assayName: TR-FRET dimerization assay (CRBN-IKZF2 ternary complex formation)
Type: binding
conditionSet: compound concentration 6.6667E−06; n=1
parameter: TR-FRET-IKZF2 (Normalized to CC-885)
Answer as a number with no unit attached.

Request: Identify the measured TR-FRET-IKZF2 (Normalized to CC-885) of Cc1ccc(NC(=O)NCc2cccc(NC3=CC(=O)N(C4CCC(=O)NC4=O)C3=O)c2)cc1C (stereo not shown) for CRBN and Helios (IKZF2) (Homo sapiens, UniProt Q96SW2+Q9UKS7).
Response: 1.061

Request: Notebook: pull reported TR-FRET-IKZF2 (Normalized to CC-885) for CRBN and Helios (IKZF2) (Homo sapiens, UniProt Q96SW2+Q9UKS7), entry Cc1ccc(NC2=CC(=O)N(C3CCC(=O)NC3=O)C2=O)cc1C#N (stereo not shown)
Response: 0.296

Others:
Request: Notebook: pull reported TR-FRET-IKZF2 (Normalized to CC-885) for CRBN and Helios (IKZF2) (Homo sapiens, UniProt Q96SW2+Q9UKS7), entry CC(CC(=O)Nc1cccc(C(F)(F)F)c1)c1cccc(NC2=CC(=O)N(C3CCC(=O)NC3=O)C2=O)c1 (stereo not shown)
Response: 1.72

Request: Test system CRBN and Helios (IKZF2) (Homo sapiens, UniProt Q96SW2+Q9UKS7); read-out TR-FRET-IKZF2 (Normalized to CC-885); what value for CCC(NC(=O)Nc1ccc(C)c(Cl)c1)c1cccc(NC2=CC(=O)N(C3CCC(=O)NC3=O)C2=O)c1 (stereo not shown) ?
Response: 1.914

Request: # get_value(readout= TR-FRET-IKZF2 (Normalized to CC-885), system= CRBN and Helios (IKZF2) (Homo sapiens, UniProt Q96SW2+Q9UKS7)) for Cc1ccc(NC(=O)NCCNC2=CC(=O)N(C3CCC(=O)NC3=O)C2=O)cc1Cl (stereo not shown)
Response: 0.126

Request: Find the measured TR-FRET-IKZF2 (Normalized to CC-885): item O=C(Cc1ccc(Cl)c(Cl)c1)NCc1cccc(NC2=CC(=O)N(C3CCC(=O)NC3=O)C2=O)c1 (stereo not shown) , target or system CRBN and Helios (IKZF2) (Homo sapiens, UniProt Q96SW2+Q9UKS7).
Response: 1.248

Request: Give TR-FRET-IKZF2 (Normalized to CC-885) (CRBN and Helios (IKZF2) (Homo sapiens, UniProt Q96SW2+Q9UKS7)) of the following compound: Cc1ccc(NC(=O)NCc2cc(NC3=CC(=O)N(C4CCC(=O)NC4=O)C3=O)ccc2OC(=O)N(C)C)cc1Cl (stereo not shown)
Response: 0.109

* * *

# Lookup of reported SALL4 ZNF1-2 GFP/RFP Relative Abundance keyed by entry
targetUnderTest: SALL4 ZNF1-2 (Homo sapiens, UniProt Q96SW2+Q9UJQ4)
Construct: IKZF1Δ, IKZF2Δ, GSPT1 and SALL4 ZnF1-2 were subcloned; expressed in transfected cells; host or cells: Flp-In 293
Sequence (Q9UJQ4 378-438 limits assumed, one chain of several): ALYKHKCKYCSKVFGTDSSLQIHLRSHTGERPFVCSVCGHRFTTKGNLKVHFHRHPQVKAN
Sequence (Q16531 whole entry partner, one chain of several): as the sequence (Q16531 whole entry partner, one chain of several, the tested form may be a part) above
assayName: Cellular degradation assay, eGFP-SALL4 ZnF1-2 fusion with mCherry reporter in Flp-In 293 cells
Assay type: cell-based
conditionSet: compound concentration 2.00E−07; 5 h incubation; n=1

Consider the reported SALL4 ZNF1-2 GFP/RFP Relative Abundance for these compounds:
Request: Entry under review: Cc1ccc(NC(=O)NCc2ccc3c(c2)CN(C2CCC(=O)NC2=O)C3=O)cc1Cl (stereo not drawn) [CC-885, reference compound] . Reported SALL4 ZNF1-2 GFP/RFP Relative Abundance?
Response: 0.852

Request: Look at this compound and give its reported SALL4 ZNF1-2 GFP/RFP Relative Abundance. CCOC(=O)CNC1=CC(=O)N(C2CCC(=O)NC2=O)C1=O (stereo not drawn)
Response: 1.013

Request: Please look up its SALL4 ZNF1-2 GFP/RFP Relative Abundance: CN(C)C(=O)Cc1cccc(NC2=CC(=O)N(C3CCC(=O)NC3=O)C2=O)c1 (stereo not drawn)
Response: 0.888

Request: Endpoint output: SALL4 ZNF1-2 GFP/RFP Relative Abundance of COC(=O)CN(C)C1=CC(=O)N(C2CCC(=O)NC2=O)C1=O (stereo not drawn) . Value?
Response: 1.047

Request: Which SALL4 ZNF1-2 GFP/RFP Relative Abundance reading was recorded for the compound Cc1ccc(NC2=CC(=O)N(C3CCC(=O)NC3=O)C2=O)cc1Cl (stereo not drawn) ?
Response: 0.879

New cases:
Request: Fill blank: measured SALL4 ZNF1-2 GFP/RFP Relative Abundance of the compound Cc1ccc(NC(=O)Nc2ccc(NC3=CC(=O)N(C4CCC(=O)NC4=O)C3=O)cc2)cc1Cl (stereo not drawn) is ____.
Response: 1.018

Request: # SALL4 ZNF1-2 GFP/RFP Relative Abundance lookup, item Cc1ccc(NC(=O)NCc2ccccc2NC2=CC(=O)N(C3CCC(=O)NC3=O)C2=O)cc1Cl (stereo not drawn)
Response: 0.948

Request: Give its SALL4 ZNF1-2 GFP/RFP Relative Abundance value. Item: O=C1CCC(N2C(=O)C=C(Nc3ccc(Cl)cc3)C2=O)C(=O)N1 (stereo not drawn)
Response: 0.887

Request: If you can, please state the reported SALL4 ZNF1-2 GFP/RFP Relative Abundance value of O=C1CCC(N2C(=O)C=C(Nc3ccccc3)C2=O)C(=O)N1 (stereo not drawn) .
Response: 0.774

Request: # input compound: Cc1ccc(NC(=O)NCc2cccc(NC3=CC(=O)N(C4CCC(=O)NC4=O)C3=O)c2)cc1Cl (stereo not drawn) ; wanted: its SALL4 ZNF1-2 GFP/RFP Relative Abundance
Response: 0.702

Request: Entry CN(C1=CC(=O)N(C2CCC(=O)NC2=O)C1=O)c1ccccc1 (stereo not drawn) has what SALL4 ZNF1-2 GFP/RFP Relative Abundance?
Response: 0.946

Request: Fill in: SALL4 ZNF1-2 GFP/RFP Relative Abundance of O=C1CCC(N2C(=O)C=C(Nc3nc[nH]n3)C2=O)C(=O)N1 (stereo not drawn) is ___
Response: 0.904

Request: Look up SALL4 ZNF1-2 GFP/RFP Relative Abundance for this compound: O=C1CCC(N2C(=O)C=C(Nc3cccc(-c4nnn[nH]4)c3)C2=O)C(=O)N1 (stereo not drawn)
Response: 0.981

Request: Could you tell me which SALL4 ZNF1-2 GFP/RFP Relative Abundance is on file for O=C1CCC(N2C(=O)C=C(Nc3cccc(-c4cc[nH]n4)c3)C2=O)C(=O)N1 (stereo not drawn) ?
Response: 0.713
